B1: FAM116A (parent)
chain: TVHEVDIFRCFCPVFLHSQMLWEL

# Variants of: B1
# assay notes: protein stability index of a GFP-peptide fusion (GPS, HEK-293T) (PSI 1-6); higher = more stable;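 note: lentivirally expressed fusions sorted by FACS into six bins by GFP to DsRed ratio, PSI derived from sequencing read proportions per bin multiplied by bin number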
# test context: c terminus: a fixed tail appended
recorded endpoint: protein stability index
Please give only the number in your answer, with no unit.

// known answers, use as guide
variant key	protein stability index
D6K	2.61
D6N	3.02
E23N	3.34
Q19C	2.22
I7N	1.09
H17M	3.23
H3Y	3.37
V5R	4.06

Request: # query: protein stability index of entry "F11N"
Result: 2.04

Request: # query: protein stability index of entry "D6Y"
Result: 2.19

Request: # query: protein stability index of entry "F8L"
Result: 3.07

Request: # query: protein stability index of entry "V14R"
Result: 2.5

Request: # query: protein stability index of entry "F8N"
Result: 2.05

Request: # query: protein stability index of entry "L21Q"
Result: 3.05
